# measured.target: T1, human recombinant GIP receptor (human, UniProt P48546 22-466)
# T1 construct: whole, on cells; Assayed as washed membranes of CHO-K1 cells expressing the receptor; also called hGIP receptor
# T1 sequence (looked up): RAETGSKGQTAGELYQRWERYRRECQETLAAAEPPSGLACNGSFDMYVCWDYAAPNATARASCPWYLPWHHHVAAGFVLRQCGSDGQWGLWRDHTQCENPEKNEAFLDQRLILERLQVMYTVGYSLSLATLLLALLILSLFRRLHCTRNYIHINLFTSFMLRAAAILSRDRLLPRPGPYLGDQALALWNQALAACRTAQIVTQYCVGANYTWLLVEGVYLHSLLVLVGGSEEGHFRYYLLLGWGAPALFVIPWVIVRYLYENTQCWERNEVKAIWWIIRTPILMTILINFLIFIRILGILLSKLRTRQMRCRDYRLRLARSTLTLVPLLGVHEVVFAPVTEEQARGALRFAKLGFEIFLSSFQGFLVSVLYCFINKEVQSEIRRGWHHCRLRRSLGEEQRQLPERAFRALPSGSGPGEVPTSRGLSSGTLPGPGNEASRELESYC
# assay.comment: displacement of [125I]GIP, membranes of CHO-K1 cells expressing human GIP receptor
pKi: −log10 of the molar value.
Entry flag: satisfied if pKi reaches 8; not satisfied if it does not.

Consider the following illustrative entries.
YAEGTFISDYXIAXDKIHQQDFVNWLLAQKGKKNDWKHNITQC (3Cl-Tyr at 1; D-Ala at 2; A5c at 11 and 14; Cys(succinimide) at 43, X stands for a non-natural residue) [[3Cl-Tyr^1, D-Ala^2, A5c^11, 14, Cys^43(succinimide)]hGIP(1-43)-OH] : satisfied
YXEGTFISDYXIAXDKIHQQDFVNWLLAQKGKKNDWKHNITQH (2,6Me-Tyr at 1; Aib at 2; A5c at 11 and 14) [(2,6Me-Tyr^1, Aib^2, A5c^11, 14, His^43)hGIP(1-43)-OH] : not satisfied
YXEGTFISDYXIAXDKIHQQDFVNWLLAQKGKKNDWKHNITQH (3Cl-Tyr at 1; Aib at 2; A5c at 11; Nle at 14) [(3Cl-Tyr^1, Aib^2, A5c^11, Nle^14, His^43)hGIP(1-43)-OH] : satisfied
YXEGTFISDYXIAXDKIHQQDFVNWLLAQKGKKNDWKHNITQ (3,5I-Tyr at 1; Aib at 2; A5c at 11; Nle at 14) [(3,5I-Tyr^1, Aib^2, A5c^11, Nle^14)hGIP(1-42)-OH] : not satisfied
YXEGTFISDYXIAXDKIHQQDFVNWLLAQKGKKNDWKHNITQC (3Cl-Tyr at 1; Aib at 2; A5c at 11; Nle at 14) [(3Cl-Tyr^1, Aib^2, A5c^11, Nle^14, Cys^43)hGIP(1-43)-OH] : satisfied

-- ask API: above_or_equal(metric=pKi, cutoff=8) for item YXEGTFISDYXIAMDKIHQQDFVNWLLAQKGKKNDWKHNIXQ (3MeO-Tyr at 1; Aib at 2; A5c at 11 and 41) [(3MeO-Tyr^1, Aib^2, A5c^11, 41)hGIP(1-42)-OH]
-- reply satisfied

-- ask Same read-out for FXEGTFISDYXIAXDKIHQQDFVNWLLAQKGKKNDWKHNITQ (4NH2CH2-Phe at 1; Aib at 2; A5c at 11; Nle at 14) [(4NH2CH2-Phe^1, Aib^2, A5c^11, Nle^14)hGIP(1-42)-OH] ?
-- reply not satisfied

-- ask Same read-out for YXEGTFISDYXIAXDKIHQQDFVNWLLAQKGKKNDWKHNITQ (3Br-Tyr at 1; Aib at 2; A5c at 11; Nle at 14) [(3Br-Tyr^1, Aib^2, A5c^11, Nle^14)hGIP(1-42)-OH] ?
-- reply satisfied

-- ask Same read-out for XXEGTFISDYXIAXDKIHQQDFVNWLLAQKGKKNDWKHNITQ (hTyr at 1; Aib at 2; A5c at 11; Nle at 14) [(hTyr^1, Aib^2, A5c^11, Nle^14)hGIP(1-42)-OH] ?
-- reply not satisfied

-- ask Same read-out for YXEGTFISDYXIAXDKIHQQDFVNWLLAQKGKKNDWKHNITQH (3Br-Tyr at 1; Aib at 2; A5c at 11 and 14) [(3Br-Tyr^1, Aib^2, A5c^11, 14, His^43)hGIP(1-43)-OH] ?
-- reply satisfied

-- ask Same read-out for YXEGTFISDYXIAMDKIHQQDFVNWLLAQKGKKNDWKHNIXQ (2,6Me-Tyr at 1; Aib at 2; A5c at 11 and 41) [(2,6Me-Tyr^1, Aib^2, A5c^11, 41)hGIP(1-42)-OH] ?
-- reply satisfied

-- ask Same read-out for XXEGTFXSDYSIAMDKIHQQDFVNWLLAQK (4Hppa at 1; Aib at 2; A5c at 7; C-terminal amide) [(4Hppa^1, Aib^2, A5c^7)hGIP(1-30)-NH2] ?
-- reply satisfied

-- ask Same read-out for HXEGTFISDYSIXXDKIHQQDFVNWLLAQKGKKNDWKHNITQ (Aib at 2 and 13; Nle at 14) [(His^1, Aib^2, 13, Nle^14)hGIP(1-42)-OH] ?
-- reply satisfied

-- ask Same read-out for YXEGTFISDYXIAXDKIHQQDFVNWLLAQKGKKNDWKHNITQC (3Cl-Tyr at 1; Aib at 2; A5c at 11; Nle at 14; Cys(succinimide-N-(CH2)2-C(O)NH-(CH2)3-O-CH2-CH(20K PEG)-CH2-20K PEG) at 43; C-terminal amide, Branched PEGylated analogue) ?
-- reply not satisfied
